The following molecules are listed with their measured IC50 values.
# measured on: rat RXFP2 (Rattus norvegicus, UniProt F7EMH8)
# Sequence (F7EMH8 20-737): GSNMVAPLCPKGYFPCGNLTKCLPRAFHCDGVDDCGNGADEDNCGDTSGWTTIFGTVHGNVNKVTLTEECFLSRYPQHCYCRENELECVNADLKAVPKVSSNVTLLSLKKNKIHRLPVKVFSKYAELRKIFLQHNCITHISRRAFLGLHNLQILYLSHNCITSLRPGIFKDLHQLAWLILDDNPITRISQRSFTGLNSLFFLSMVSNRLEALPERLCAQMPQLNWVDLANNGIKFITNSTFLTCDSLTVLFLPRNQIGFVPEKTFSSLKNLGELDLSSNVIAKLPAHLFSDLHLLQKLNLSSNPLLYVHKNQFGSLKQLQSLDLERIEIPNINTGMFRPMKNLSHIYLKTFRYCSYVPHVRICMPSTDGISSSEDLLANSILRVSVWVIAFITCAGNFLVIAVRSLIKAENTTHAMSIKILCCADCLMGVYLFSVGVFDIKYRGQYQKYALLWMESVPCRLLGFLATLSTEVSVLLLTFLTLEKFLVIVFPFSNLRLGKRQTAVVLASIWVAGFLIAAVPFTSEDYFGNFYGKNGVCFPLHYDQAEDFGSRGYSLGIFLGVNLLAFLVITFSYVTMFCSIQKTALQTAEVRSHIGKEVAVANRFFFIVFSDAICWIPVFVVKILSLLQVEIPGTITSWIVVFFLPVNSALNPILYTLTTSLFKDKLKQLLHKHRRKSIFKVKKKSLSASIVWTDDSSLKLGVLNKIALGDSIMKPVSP
# test description: INSL3-stimulated CYP11B2 mRNA expression in H295R stably expressing rat RXFP2
# Assay type: cell-based
# Parameters: expressed in transfected cells
# measurement conditions: INSL3 EC80 (3.5 nM), 48 h, qPCR; N = 2
Write down the numeric answer in nM and omit the unit.

The molecule identified as 4H5: RXFP2 monoclonal antibody from hybridoma, recombinantly expressed in a rat IgG2b backbone (antibody, V domains shown) VH: QVQLKQSGPGLVQPSQSLSITCTVSGFSLTNYGVHWVRQSPGKGLEWLGVIWRDGNTDYNAAFMSRLSITKDNSKSQVFFEMNSLQVDDTAIYYCCRGDGYYAMGYWGQGTSVTVSS VL: DIQMTQSPASLSVSVGETVTITCRASENIYSNLAWYQQRQGRSPQLLVYAATNLADGVPSRFSGSGSGTQYSLKINSLQSEDFGNYYCQHFWGSPRTFGGGTKLEIK registered its IC50 at 0.15

The molecule identified as 3F3: RXFP2 monoclonal antibody from hybridoma, recombinantly expressed in a rat IgG2b backbone (antibody, V domains shown) VH: QVQLQQPGSVLVRPGASVKLSCKASGYIFTSYWMHWVKQRPGQGLEWIGEIYPNSGRTSYNEKFKGKATVTVDTSSSTAYVDLSSLTSEDSAVYYCASGGHWFAYWGQGTLVTVSA VL: DIQMTQSSSSFSVSLGDRVTITCKASEDIYNRLAWYQQKPGNAPRLLISGATSLEAGVPSRFSGSGSGKDYTLSITSLQTEDVSTYYCQQYWITPYTFGGGTKLEIK registered its IC50 at 0.51
